Target: Cytochrome P450 2C9 (Homo sapiens)
Sequence (P11712 whole entry): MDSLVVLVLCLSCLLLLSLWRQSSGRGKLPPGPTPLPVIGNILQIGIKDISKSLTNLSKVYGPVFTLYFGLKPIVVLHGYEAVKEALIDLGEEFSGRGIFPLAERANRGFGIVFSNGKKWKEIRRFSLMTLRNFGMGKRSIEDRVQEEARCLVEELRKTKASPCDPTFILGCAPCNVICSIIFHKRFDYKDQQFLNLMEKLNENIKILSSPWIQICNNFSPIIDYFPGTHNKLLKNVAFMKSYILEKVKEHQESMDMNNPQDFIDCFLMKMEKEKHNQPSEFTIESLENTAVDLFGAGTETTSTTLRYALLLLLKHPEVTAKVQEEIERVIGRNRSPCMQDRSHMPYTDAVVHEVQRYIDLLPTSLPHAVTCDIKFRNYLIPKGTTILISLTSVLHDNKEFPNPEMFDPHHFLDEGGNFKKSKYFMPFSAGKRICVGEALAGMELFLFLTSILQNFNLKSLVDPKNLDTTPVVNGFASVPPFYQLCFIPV
Assay: Inhibition of CYP2C9 (unknown origin)
Assay type: ADME
pIC50: −log10 of the molar value.
REPORTED_ENDPOINT: pIC50

COc1cc(NC(C(=O)c2c[nH]c3ccccc23)c2ccccc2)cc(OC)c1 (single isomer, unassigned; (+)) :: 5.49
COc1cc(NC(C(=O)c2c[nH]c3ccccc23)c2ccccc2)cc(OC)c1 (racemic) :: 5.32

====

System: dengue virus type 2
Assay: Antiviral activity against Dengue virus 2 Rega infected in African green monkey Vero cells assessed as reduction in viral yield after 4 days by qRT-PCR analysis
Format: functional, organism-based
Conditions: Dengue virus, Rega, Vero, 96 h
pEC50: −log10 of the molar value.
REPORTED_ENDPOINT: pEC50

Check out these entries, answers already filled in.
COc1cccc(NC(C(=O)c2c[nH]c3ccccc23)c2cccnc2)c1 (stereo unspecified) :: 6.86
O=C(c1c[nH]c2ccccc12)C(Nc1cc(F)cc(F)c1)c1ccccc1 (stereo unspecified) :: 5.77
COc1cc(NC(C(=O)c2c[nH]c3cccc(CCCO)c23)c2ccccc2)cc(OC)c1 (stereo unspecified) :: 5.85

(P) COc1cccc(NC(C(=O)c2c[nH]c3cccc(F)c23)c2ccccc2)c1 (stereo unspecified)
(Q) COc1cccc(NC(C(=O)c2c[nH]c3cccc(Cl)c23)c2ccccc2)c1 (stereo unspecified)
# return whichever of P and Q has the smaller pEC50 Please respond with the label that marks your chosen entry.
P

====

Tested on: dengue virus type 2
Test: Antiviral activity against Dengue virus 2 Rega infected in African green monkey Vero cells assessed as reduction in viral yield after 4 days by qRT-PCR analysis
Assay type: functional, organism-based
Settings: Dengue virus, Rega, Vero, 96 h
REPORTED_ENDPOINT: EC50 (nM)

Check out these entries, answers already filled in.
COc1cc(NC(C(=O)c2c[nH]c3ccc(CO)cc23)c2ccccc2)cc(OC)c1 (stereo not given) :: 106
COc1cc(NC(C(=O)c2c[nH]c3ccc(CCCO)cc23)c2ccccc2)cc(OC)c1 (stereo not given) :: 96
COc1cccc(NC(C(=O)c2c[nH]c3ccccc23)c2ccccc2)n1 (stereo not given) :: 288
COc1cc(NC(C(=O)c2c[nH]c3ccccc23)c2ccc(F)cc2)cc(OC)c1 (stereo not given) :: 4
COc1ccnc(NC(C(=O)c2c[nH]c3ccccc23)c2ccccc2)c1 (stereo not given) :: 6300
COc1cccc(NC(C(=O)c2c[nH]c3ccccc23)c2ccc(C#N)cc2)c1 (stereo not given) :: 41

(A) COc1cncc(NC(C(=O)c2c[nH]c3ccccc23)c2ccccc2)c1 (stereo not given)
(B) COc1cccc(NC(C(=O)c2c[nH]c3ccccc23)c2ccc(C)nc2)c1 (stereo not given)
(C) O=C(c1c[nH]c2ccccc12)C(Nc1cccc(OC(F)(F)F)c1)c1ccccc1 (stereo not given)
List from greatest to least EC50. # the answer lists labels in the order requested
C, B, A

====

Assay: Drug metabolism in human liver microsomes after 15 mins
Format: ADME, microsome
Conditions: liver microsomes, read-out: Drug metabolism
REPORTED_ENDPOINT: metabolised at 0.25 h (%)

Check out these entries, answers already filled in.
COc1cc(NC(C(=O)c2c[nH]c3ccccc23)c2ccc(F)cc2)cc(OCCO)c1 (stereo unspecified) :: 7
COc1cc(CO)cc(NC(C(=O)c2c[nH]c3ccccc23)c2ccccc2)c1 (stereo unspecified) :: 18
COc1cccc(NC(C(=O)c2c[nH]c3ccccc23)c2nc3ccccc3o2)c1 (stereo unspecified) :: 19

(I) COc1cc(NC(C(=O)c2c[nH]c3ccccc23)c2ccccc2)cc(OCCCO)c1 (stereo unspecified)
(II) COc1cc(NC(C(=O)c2c[nH]c3ccccc23)c2ccccc2)cc(OC)c1 (single isomer, unassigned; (+))
(III) COc1cncc(NC(C(=O)c2c[nH]c3ccccc23)c2ccccc2)c1 (stereo unspecified)
Reorder the items by metabolised at 0.25 h, least to greatest. # the answer lists labels in the order requested
I, II, III
